Test: in vivo
Conditions: mouse, total radioactivity, Biodistribution, Blood (μL)
property: tissue uptake at 4 h (%ID/g)

compound	reported_result
C[C@@H](O)[C@H](NC(=O)[C@@H]1CSSC[C@H](NC(=O)[C@@H](Cc2ccccc2)NC(=O)CN2CCN(CC(=O)O)CCN(CC(=O)O)CCN(CC(=O)O)CC2)C(=O)N[C@@H](Cc2ccc(O)cc2)C(=O)N[C@H](Cc2c[nH]c3ccccc23)C(=O)N[C@@H](CCCCN)C(=O)N[C@@H]([C@@H](C)O)C(=O)N1)C(=O)O [[^52Mn]Mn-DOTATATE]	0.91
